- Test system: OVCAR-5 ovarian
- procedureDetails: NCI-60 one-dose screen, 48 h (100 = growth as untreated, 0 = no growth, -100 = all killed)
- assayConditions: 10 µM unless noted
This is part of a sample that, as a whole, favours compounds with a hit. Of some 83,000 tested, about 20% had one in any assay.
readoutType: growth (%)
Please give a number only; it is taken to be in %.

Any idea what its growth is? The compound is N#Cc1c(-c2cccs2)cc(-c2cnccn2)nc1SCC(=O)c1ccc(F)cc1
88

State the recorded growth for this entry: COc1cccc(O)c1/C=C(/C)c1ccc2c(OC)cccc2[o+]1
106

Can you look up the measured growth of Cc1ccc2c(c1)C(=O)/C(=C/c1cccc(F)c1)S2 for me?
105

What does the data say about its growth? Entry: COc1cc(-c2nn(C(C)(C)C)cc2-c2ccnc(NCCCNS(=O)(=O)c3ccc(Cl)cc3)n2)ccc1Cl
79.5

Tell me the measured growth of c1cc(-c2nc3ccc4[nH]ncc4c3c3c2CCCC3)[nH]n1 , please.
89

Field request: growth | item: CC1(C)CC[C@]23CC[C@]4(C)[C@H](CC[C@@H]5[C@@]6(C)CCCN(CO)C(C)(C)[C@@H]6CC[C@]54C)[C@H]2[C@H]1OC3
95.9

Quick check: growth of CC(=O)N(C)C1CCc2c(sc(NC(=O)c3ccc(C(C)(C)C)cc3)c2C(N)=O)C1 (centres undefined) ?
78.9

Which growth is reported for this compound? O=C(c1ccc(Cl)cc1)C1[C@H](c2ccc(Cl)cc2)[C@@H](c2ccccc2)NC12C(=O)Nc1ccccc12 (some centres undefined)
71

// query growth value for entry Cc1cc2ncc(-c3cc4ccccc4c(N4CCN(C)CC4)n3)nc2cc1C
31.9

###

- Test system: CAKI-1 renal
- procedureDetails: NCI-60 one-dose screen, 48 h (100 = growth as untreated, 0 = no growth, -100 = all killed)
- assayConditions: 10 µM unless noted
Compounds without any hit were thinned out: in the full panel of roughly 83,000, 20% have a hit.
// returns -1 unless growth is strictly below 50%, in which case 1

Given the entry C#CCn1cccc1CNc1ccc(OC)cc1 , would its reported growth be below 50%?
1

Dear colleague, could you confirm whether growth of CCN1CCN(C(=O)[C@]23CCC(C)(C)C[C@H]2C2=CC[C@@H]4[C@@]5(C)Cc6c([nH]c7ccccc67)C(C)(C)[C@@H]5CC[C@@]4(C)[C@]2(C)CC3)CC1 falls below 50%? Thanks.
-1

For this molecule, is growth lower than 50%? CCNC(=O)N1CCc2cc(OC)c(OCCc3ccc(OC)c(N)c3)cc2C1c1ccc(C)cc1C (stereo not drawn)
1

# TODO verify growth < 50% strictly for this molecule: CC(C)(C)n1cc(-c2ccnc(NCCCNS(=O)(=O)c3cccc(F)c3)n2)c(-c2ccc(Cl)c(O)c2)n1
-1

Please determine if CCO/C=N/C1=C(C#N)C(c2ccc(Cl)cc2)c2sc3c(C)cccc3c2O1 (stereo not drawn) is below 50% in terms of growth.
1

Please state whether growth is below 50% for CNC(=O)c1cc(-c2ccc(NS(=O)(=O)c3ccc(C)cc3)cc2)nc2cccnc12
-1

Please let me know if COC(=O)c1ccc(NC2=C/C(=N/S(=O)(=O)c3ccc(C(=O)O)cc3)c3ccccc3C2=O)cc1 shows growth below 50%.
1

Dear reviewer, please state whether CCNC(=O)Oc1ccc(/C(=C(/C)c2ccccc2)c2ccc(OCCN3CCCCCC3)cc2)cc1 has growth strictly beneath 50%.
1

Here's an entry: Cn1ccnc1C(=O)/C=C/c1ccc(CNC(=O)c2c(F)c(F)c(F)c(F)c2F)cc1 . Is its growth below 50%?
-1

growth strictly < 50% for this molecule? COc1cc2oc(-c3cccc(N)c3)cc(=O)c2c(OC)c1OC
-1

Input COc1cc(-c2nnc(SCc3ccc(O)c4ncccc34)n2-c2ccccc2)cc(OC)c1OC ; condition: growth strictly below 50%. Does it hold?
1

Consider the molecule Fc1ccc(-c2cc3nc(C(Cl)Cl)nc(-c4ccco4)n3n2)cc1 . Is its growth strictly less than 50%?
1

Bench note: check whether Cc1cc(C)c(N2C(=O)CC(Nc3ccc(Cl)cc3Cl)C2=O)c(C)c1 (stereo not drawn) shows growth below 50%
-1

Does the reported growth of the following molecule sit strictly below 50%? CNC(=O)c1cc(-c2ccc(NC(=S)Nc3cc(C(F)(F)F)cc(C(F)(F)F)c3)cc2)nc2cccnc12
-1

Item C#Cc1ccc(C(=O)NCc2ccc(/C=C/C(=O)c3nccn3C)cc2)cc1 : growth beneath 50%, strictly?
1

# TODO verify growth < 50% strictly for this molecule: Nc1ncc(-c2ccc3ncnc(N4CCc5cc(F)c(Cl)cc54)c3c2)cn1
1

Could you please tell me whether growth recorded for CN1CCC(n2cc(Nc3ncc4c(=O)n(-c5c(Cl)cccc5Cl)cc(Br)c4n3)cn2)CC1 is less than 50%?
1

Determine whether this molecule shows growth lower than 50% (ties excluded): O=C1C(c2ccccc2)=C(N2CCc3ccccc32)OC1(Cl)Cl
1

Strictly below 50%: is that where growth of Cc1ccc(-n2cc(/C=C/C(=O)c3ccc(O)cc3)c(-c3ccc(S(C)(=O)=O)cc3)n2)cc1 sits?
-1

Would you kindly verify if growth of C#Cc1nc(/C=C/C(=O)c2nccn2C)cs1 is strictly less than 50%?
1

Threshold test, growth < 50%: COc1cc2nc(Cl)nc(Nc3cccc(C4=Nc5c(N)nc(N)nc5NC(c5ccc6c(c5)OCO6)C4)c3)c2cc1OC (stereo not drawn)
-1

Take the molecule Cn1cc(CNc2nc3ccc(OC/C(=C/F)CN)cc3o2)ccc1=O and say whether its growth is less than 50%.
-1

Criterion: growth strictly below 50%. Is it met by CC(=O)c1nnn(-c2c(C(=O)n3nc(C)cc3C)sc(=S)n2-c2ccccc2)c1C ?
-1

Answer whether the molecule COC[C@]12CCC(C)(C)C[C@H]1C1=CC[C@@H]3[C@@]4(C)CCCNC(C)(C)[C@@H]4CC[C@@]3(C)[C@]1(C)CC2 has growth strictly less than 50%
1

Does this molecule meet the criterion growth < 50%? O=C1Nc2ccccc2/C1=C/c1ccc(CO)n1-c1ccc(Cl)cc1
-1

Is it true that growth reported for COc1ccc(NC(=O)CSc2nnc(-c3ccc4nc(-c5ccccc5)[nH]c4c3)o2)cc1 is less than 50%?
-1

State whether 50% exceeds growth recorded for Cn1ccnc1C(=O)/C=C/c1ccc(CNC(=O)c2ccc(F)cc2)cc1 .
1

Hi there! Is growth for Cc1nc(-c2ccccc2O)ccc1C(=O)N=Nc1c(O)[nH]c2ccc(Br)cc12 below 50%, do you know?
-1

Answer whether the molecule NC(N)=Nc1ccc(Oc2cccc(Nc3ccc(Cl)c(C(F)(F)F)c3)c2)cn1 has growth strictly less than 50%
1

Please state whether growth is below 50% for CCOC(=O)c1c(Nc2ccccc2)nn2c(-c3cccs3)ccnc12
-1

Answer whether the molecule Cn1cc(-c2nc(N)nnc2-c2c[nH]c3ccc(Br)cc23)c2cc(Br)ccc21 has growth strictly less than 50%
1

Confirm or reject: growth of Cn1ccnc1C(=O)/C=C/c1ccc(CNC(=O)c2ccc(S(F)(F)(F)(F)F)cc2)cc1 lies strictly below 50%
1

growth under 50%? Item: CCCCCCCn1cc2c(N[C@H](C)c3ccccc3)ncnc2n1
-1

Could you please tell me whether growth recorded for O=c1[nH]c(Sc2sc3ccc(Cl)cc3c2CBr)nc(=S)[nH]1 is less than 50%?
1

Would you kindly verify if growth of C[C@H]1c2[nH]c3ccccc3c2C[C@H]2C(=O)N(CCCCCCC(=O)NO)CC(=O)N21 is strictly less than 50%?
-1

Could you please tell me whether growth recorded for Nc1ccccc1NC(=O)c1ccc(NC(=O)C/C=C/c2cccnc2)cn1 is less than 50%?
1

I'd appreciate it if you could check whether CNC(=O)c1cc(-n2ccc3cc(NC(=O)Nc4ccc(N5CCOCC5)c(C(F)(F)F)c4)ccc32)ccn1 has growth smaller than 50%.
1

###

- Tested on: SF-268 CNS
- procedureDetails: NCI-60 one-dose screen, 48 h (100 = growth as untreated, 0 = no growth, -100 = all killed)
- assayConditions: 10 µM unless noted
- Protocol: Cells are grown in 96 well plates and exposed to the test compound for 48 hours. Compounds are tested at a single concentration, which is 10^-5 M for most compounds. The reported endpoint is percent growth (GI% or GIPRCNT), where numbers from 0 - 100% represent growth inhibition, and numbers from -100% - 0 represent cell death. For example, a value of 40 represents 60% growth inhibition. A value of 0 means no net growth occurred over the course of the experiment. […]
About 83,000 compounds went through this panel and 20% of them were active in at least one assay; those are over-represented in the sample as a whole.
Could you please mark 1 for values of growth below 50% and -1 for values at or above it?

Please let me know if Cc1ccc(-c2cc3nc(C(Cl)Cl)nc(C)n3n2)cc1 shows growth below 50%.
-1

Is growth of C#C[C@]1(O)CC[C@H]2[C@@H]3CC=C4c5sc(-c6ccc7c(c6)OCO7)nc5CC[C@]4(C)[C@H]3CC[C@@]21C strictly below 50%?
-1

Confirm or reject: growth of Clc1nc2ccccc2nc1-c1nnc(C2CCCCC2)o1 lies strictly below 50%
-1

Given the entry COc1ccc(S(=O)(=O)NCCCNc2nccc(-c3[nH]c(-c4ccccc4)nc3-c3ccc(Cl)c(O)c3)n2)cc1 , would its reported growth be below 50%?
-1

Please determine if NC(=O)c1c(NC(=O)c2ccc(F)cc2F)sc2c1CCC(=O)C2 is below 50% in terms of growth.
1
